The measurements presented in this section are drawn from patent US12624039B2.

# Test method notes: Protein binding in human plasma by equilibrium dialysis
# Assay type: in vitro ADME
# Experimental context: human, plasma, pH 7.4, human plasma, 18 hours at 37° C., read-out: hPPB (fu %)
The entries below come with measured fraction unbound at 18 h, 5 μM values attached.
Test readout: fraction unbound at 18 h, 5 μM

[
  {
    "Compound": "Nc1nccn2c(C3CCC(CO)OC3)nc(-c3ccc(Oc4cccc(F)c4F)cc3)c12 (single isomer, unassigned)",
    "Measured": 0.075
  },
  {
    "Compound": "Nc1ncnn2c(C3CCC(CO)OC3)nc(-c3ccc(Oc4ccccc4)c(F)c3F)c12 (stereo not shown)",
    "Measured": 0.074
  },
  {
    "Compound": "Nc1ncnn2c(C3CCC(CO)OC3)nc(-c3ccc(Oc4ccccc4)cc3F)c12 (single isomer, unassigned)",
    "Measured": 0.093
  },
  {
    "Compound": "Nc1nccn2c(C3CCC(CO)OC3)nc(-c3ccc(Oc4ccccc4)cc3F)c12 (single isomer, unassigned)",
    "Measured": 0.106
  }
]
